- protocol_details: Inhibition of amyloid beta (1 to 40) monomer aggregation assessed as reduction in plateau fluorescence by thioflavin T based fluorometric assay
- Design: concentration or dose not given beside the values
- condition_details: concentration not given here
In this section we review reported inhibition values for a set of compounds.
Dear colleague, please return just the value in %, with no unit written.

> print(dat)
                            chemical.smiles  quantitative.result
1     O=c1cc(-n2cc(-c3ccccc3)nn2)c2ccccc2o1                   73
2                       N#Cc1cc2ccccc2oc1=O                   22
3  O=c1oc2ccccc2cc1-n1cc(-c2cccc3ccccc23)nn1                   61
4  CCN(CC)c1ccc2c(-c3nnn[nH]3)c(-c3nc4ccccc4s3)c(=O)oc2c1                   96
5               O=c1oc2ccccc2cc1-c1nn[nH]n1                   87

What value of measured inhibition is listed for CCN(CC)c1ccc2cc(-c3nc4ccccc4s3)c(=O)oc2c1 ?
64

What value of measured inhibition is listed for O=c1oc2ccccc2cc1-n1cc(-c2ccccc2)nn1 ?
88

What value of measured inhibition is listed for CCN(CC)c1ccc2c(C#N)c(-c3nc4ccccc4s3)c(=O)oc2c1 ?
38

###

- protocol_details: Inhibition of amyloid beta (1 to 40) monomer aggregation assessed as lag time extension by thioflavin T based fluorometric assay relative to control
reported_endpoint: fold change (FC)

> print(dat)
                           chemical.smiles  reported.endpoint  result
1        CCN(CC)c1ccc2c(C#N)c(N)c(=O)oc2c1   fold change (FC)     2.1
2  CCN(CC)c1ccc2cc([N+](=O)[O-])c(=O)oc2c1   fold change (FC)     1.7
3                      N#Cc1cc2ccccc2oc1=O   fold change (FC)       1
4   CCN(CC)c1ccc2c(C#N)c(C(C)=O)c(=O)oc2c1   fold change (FC)     1.8

Next molecule, fold change (FC) to be filled in.
What value of measured fold change (FC) is listed for O=c1oc2ccccc2cc1-n1cc(-c2ccccc2)nn1 ?
2.2
